Readings of MIC for the listed compounds
# Test system: Cryptococcus neoformans
# protocol: Antifungal activity against Cryptococcus neoformans SYM 523 after 48 hrs standard broth microdilution method
# Format: functional
readout-label: MIC

>  <sample-smiles>
OC(Cn1cncn1)(Cn1cncn1)c1ccc(F)cc1F

>  <value>
32 µg/mL

$$$$
>  <sample-smiles>
O=C1O[C@H]2Cc3ccccc3[C@H]2NC(=O)c2cccc(n2)C(=O)N[C@@H]2c3ccccc3C[C@@H]2OC(=O)c2cccc1c2

>  <value>
8 µg/mL

$$$$
>  <sample-smiles>
O=C1N[C@@H]2c3ccccc3C[C@@H]2OC(=O)c2cccc(c2)C(=O)O[C@H]2Cc3ccccc3[C@H]2NC(=O)c2cccc1c2

>  <value>
4 µg/mL

$$$$
>  <sample-smiles>
O=C1N[C@@H]2c3ccccc3C[C@@H]2OC(=O)c2cccc(n2)C(=O)O[C@H]2Cc3ccccc3[C@H]2NC(=O)c2cccc1c2

>  <value>
16 µg/mL

$$$$
>  <sample-smiles>
O=C1N[C@@H]2c3ccccc3C[C@@H]2OC(=O)c2cccc(n2)C(=O)O[C@H]2Cc3ccccc3[C@H]2NC(=O)c2cccc1n2

>  <value>
16 µg/mL

$$$$
>  <sample-smiles>
O=C1O[C@H]2Cc3ccccc3[C@H]2NC(=O)c2cccc(n2)C(=O)N[C@@H]2c3ccccc3C[C@@H]2OC(=O)C2=CC=C1S2

>  <value>
4 µg/mL

$$$$
>  <sample-smiles>
O=C1O[C@H]2Cc3ccccc3[C@H]2NC(=O)c2cccc(c2)C(=O)N[C@@H]2c3ccccc3C[C@@H]2OC(=O)C2=CC=C1S2

>  <value>
4 µg/mL

$$$$

* * *

# protocol: Toxicity against human erythrocytes assessed as hemolytic activity at 500 ug/ml
# Assay type: cell-based, Erythrocyte
# measurement-conditions: read-out: Activity
A collection of compounds and their measured hemolysis at 500 ug/ml

>  <sample-smiles>
O=C1N[C@@H]2c3ccccc3C[C@@H]2OC(=O)c2cccc(c2)C(=O)O[C@H]2Cc3ccccc3[C@H]2NC(=O)c2cccc1c2

>  <hemolysis at 500 ug/ml (%)>
0

$$$$
>  <sample-smiles>
O=C1N[C@@H]2c3ccccc3C[C@@H]2OC(=O)c2cccc(n2)C(=O)O[C@H]2Cc3ccccc3[C@H]2NC(=O)c2cccc1n2

>  <hemolysis at 500 ug/ml (%)>
0

$$$$
>  <sample-smiles>
O=C1N[C@@H]2c3ccccc3C[C@@H]2OC(=O)c2cccc(n2)C(=O)O[C@H]2Cc3ccccc3[C@H]2NC(=O)c2cccc1c2

>  <hemolysis at 500 ug/ml (%)>
0

$$$$
>  <sample-smiles>
O=C1O[C@H]2Cc3ccccc3[C@H]2NC(=O)c2cccc(c2)C(=O)N[C@@H]2c3ccccc3C[C@@H]2OC(=O)C2=CC=C1S2

>  <hemolysis at 500 ug/ml (%)>
0

$$$$
>  <sample-smiles>
O=C1O[C@H]2Cc3ccccc3[C@H]2NC(=O)c2cccc(n2)C(=O)N[C@@H]2c3ccccc3C[C@@H]2OC(=O)c2cccc1c2

>  <hemolysis at 500 ug/ml (%)>
0

$$$$
>  <sample-smiles>
O=C1O[C@H]2Cc3ccccc3[C@H]2NC(=O)c2cccc(n2)C(=O)N[C@@H]2c3ccccc3C[C@@H]2OC(=O)C2=CC=C1S2

>  <hemolysis at 500 ug/ml (%)>
1

$$$$

* * *

# protocol: Toxicity against human erythrocytes assessed as hemolytic activity at 4000 ug/ml
# Assay type: cell-based, Erythrocyte
# measurement-conditions: read-out: Activity

>  <sample-smiles>
O=C1N[C@@H]2c3ccccc3C[C@@H]2OC(=O)c2cccc(n2)C(=O)O[C@H]2Cc3ccccc3[C@H]2NC(=O)c2cccc1n2

>  <hemolysis at 4000 ug/ml (%)>
2

$$$$
>  <sample-smiles>
O=C1O[C@H]2Cc3ccccc3[C@H]2NC(=O)c2cccc(c2)C(=O)N[C@@H]2c3ccccc3C[C@@H]2OC(=O)C2=CC=C1S2

>  <hemolysis at 4000 ug/ml (%)>
9

$$$$
>  <sample-smiles>
O=C1N[C@@H]2c3ccccc3C[C@@H]2OC(=O)c2cccc(c2)C(=O)O[C@H]2Cc3ccccc3[C@H]2NC(=O)c2cccc1c2

>  <hemolysis at 4000 ug/ml (%)>
2

$$$$
>  <sample-smiles>
O=C1O[C@H]2Cc3ccccc3[C@H]2NC(=O)c2cccc(n2)C(=O)N[C@@H]2c3ccccc3C[C@@H]2OC(=O)C2=CC=C1S2

>  <hemolysis at 4000 ug/ml (%)>
14

$$$$
>  <sample-smiles>
O=C1O[C@H]2Cc3ccccc3[C@H]2NC(=O)c2cccc(n2)C(=O)N[C@@H]2c3ccccc3C[C@@H]2OC(=O)c2cccc1c2

>  <hemolysis at 4000 ug/ml (%)>
9

$$$$
>  <sample-smiles>
O=C1N[C@@H]2c3ccccc3C[C@@H]2OC(=O)c2cccc(n2)C(=O)O[C@H]2Cc3ccccc3[C@H]2NC(=O)c2cccc1c2

>  <hemolysis at 4000 ug/ml (%)>
7

$$$$

* * *

# System: Bacillus subtilis
# protocol: Antibacterial activity against Bacillus subtilis ATCC 6633 after 24 hrs by twofold dilution method
# Format: functional
# measurement-conditions: ATCC 6633, 24 h

>  <sample-smiles>
O=C(N[C@H](CO)[C@H](O)c1ccc([N+](=O)[O-])cc1)C(Cl)Cl

>  <censoring-operator>
=

>  <MIC (µg/mL)>
8

$$$$
>  <sample-smiles>
O=C1O[C@H]2Cc3ccccc3[C@H]2NC(=O)c2cccc(n2)C(=O)N[C@@H]2c3ccccc3C[C@@H]2OC(=O)C2=CC=C1S2

>  <censoring-operator>
>

>  <MIC (µg/mL)>
64

$$$$
>  <sample-smiles>
O=C1N[C@@H]2c3ccccc3C[C@@H]2OC(=O)c2cccc(n2)C(=O)O[C@H]2Cc3ccccc3[C@H]2NC(=O)c2cccc1c2

>  <censoring-operator>
>

>  <MIC (µg/mL)>
64

$$$$
>  <sample-smiles>
O=C1O[C@H]2Cc3ccccc3[C@H]2NC(=O)c2cccc(n2)C(=O)N[C@@H]2c3ccccc3C[C@@H]2OC(=O)c2cccc1c2

>  <censoring-operator>
=

>  <MIC (µg/mL)>
4

$$$$
>  <sample-smiles>
O=C1N[C@@H]2c3ccccc3C[C@@H]2OC(=O)c2cccc(c2)C(=O)O[C@H]2Cc3ccccc3[C@H]2NC(=O)c2cccc1c2

>  <censoring-operator>
=

>  <MIC (µg/mL)>
8

$$$$
>  <sample-smiles>
O=C1O[C@H]2Cc3ccccc3[C@H]2NC(=O)c2cccc(c2)C(=O)N[C@@H]2c3ccccc3C[C@@H]2OC(=O)C2=CC=C1S2

>  <censoring-operator>
>

>  <MIC (µg/mL)>
64

$$$$
>  <sample-smiles>
O=C1N[C@@H]2c3ccccc3C[C@@H]2OC(=O)c2cccc(n2)C(=O)O[C@H]2Cc3ccccc3[C@H]2NC(=O)c2cccc1n2

>  <censoring-operator>
=

>  <MIC (µg/mL)>
8

$$$$
